Source listed as PubChem BioAssay (Tox21).

assay: qHTS assay to identify small molecule agonists of the androgen receptor (AR) signaling pathway in the presence of an antagonist - cell viability counter screen (AID 1259379); conditions: MDA-kb2 viability, CellTiter-Fluor, 16 h; series mostly up to 92.4 µM; also: nearly all actives have a fitted effect of over 25% in size
Inconclusive results are not listed. The source made the active and inactive calls. Calls follow the shape of the dose curve; as a rule, active = well fitted cell-killing curve with a large enough effect in the repeat runs; inconclusive = weak or mixed curves, or effect the other way; inactive = flat fitted curve, though single readings scatter.
Response enum: Y = active, N = inactive

A selection of reference data follows.
[[record]]
molecule = "O=C(Nc1ccccc1)Nc1ccnc(Cl)c1"
category_label = "Y"

[[record]]
molecule = "O=C(O)COc1ccc(Cl)cc1"
category_label = "N"

[[record]]
molecule = "CCOP(=O)(OCC)Oc1ccc([N+](=O)[O-])cc1"
category_label = "N"


Q: What outcome does the record of this test show for COC(C)(C)CCC[C@H](C)C/C=C/C(C)=C/C(=O)OC(C)C ?
Ans: N

Q: Also CC(=O)NC1CCSC1=O (configuration not stated) , if possible.
Ans: N

Q: Also NS(=O)(=O)C(F)(F)C(F)(F)C(F)(F)C(F)(F)C(F)(F)C(F)(F)C(F)(F)C(F)(F)F , if possible.
Ans: N

Q: Also ClCc1ccccc1 , if possible.
Ans: N

Q: Also Nc1ccc(N=Nc2ccc(-c3ccc(N=Nc4c(S(=O)(=O)O)cc5cc(S(=O)(=O)O)c(N=Nc6ccccc6)c(O)c5c4N)cc3)cc2)c(N)c1 , if possible.
Ans: Y
